Documented Kb across a set of molecules
- subject-of-test: human, citrated, platelet-rich plasma (Homo sapiens, UniProt P05106+P08514)
- Construct: aggregating human, citrated, platelet-rich plasma; endogenous in cells; host or cells: human platelets in citrated platelet-rich plasma
- Sequence (P08514 32-887 limits assumed): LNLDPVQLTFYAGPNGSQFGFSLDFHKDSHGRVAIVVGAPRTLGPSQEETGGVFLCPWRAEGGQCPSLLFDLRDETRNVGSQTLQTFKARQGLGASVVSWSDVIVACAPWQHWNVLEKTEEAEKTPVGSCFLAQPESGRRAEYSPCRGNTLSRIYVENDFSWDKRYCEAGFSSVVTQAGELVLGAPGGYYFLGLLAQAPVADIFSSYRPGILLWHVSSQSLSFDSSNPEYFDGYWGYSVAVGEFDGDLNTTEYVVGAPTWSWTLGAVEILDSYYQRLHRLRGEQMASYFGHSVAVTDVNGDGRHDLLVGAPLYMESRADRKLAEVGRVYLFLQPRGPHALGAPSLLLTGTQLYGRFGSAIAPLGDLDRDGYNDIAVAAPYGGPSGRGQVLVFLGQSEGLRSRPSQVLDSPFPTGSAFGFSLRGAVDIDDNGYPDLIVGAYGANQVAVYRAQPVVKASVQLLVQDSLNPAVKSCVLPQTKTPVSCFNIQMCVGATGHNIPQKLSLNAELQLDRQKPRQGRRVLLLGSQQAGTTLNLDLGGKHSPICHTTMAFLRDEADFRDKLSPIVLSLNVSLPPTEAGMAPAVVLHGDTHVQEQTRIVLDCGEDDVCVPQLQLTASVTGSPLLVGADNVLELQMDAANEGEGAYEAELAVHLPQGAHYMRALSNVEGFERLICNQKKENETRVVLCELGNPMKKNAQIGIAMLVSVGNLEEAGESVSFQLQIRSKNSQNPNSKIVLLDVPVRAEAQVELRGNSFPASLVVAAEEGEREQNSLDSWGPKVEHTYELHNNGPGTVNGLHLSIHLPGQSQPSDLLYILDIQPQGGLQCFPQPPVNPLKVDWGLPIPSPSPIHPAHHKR
- Sequence (P08514 891-1039 limits assumed): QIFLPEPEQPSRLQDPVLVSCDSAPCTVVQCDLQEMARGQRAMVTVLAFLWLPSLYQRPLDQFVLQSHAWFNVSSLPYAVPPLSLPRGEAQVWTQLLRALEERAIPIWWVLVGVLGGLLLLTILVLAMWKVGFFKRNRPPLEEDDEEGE
- Sequence (P05106 27-788): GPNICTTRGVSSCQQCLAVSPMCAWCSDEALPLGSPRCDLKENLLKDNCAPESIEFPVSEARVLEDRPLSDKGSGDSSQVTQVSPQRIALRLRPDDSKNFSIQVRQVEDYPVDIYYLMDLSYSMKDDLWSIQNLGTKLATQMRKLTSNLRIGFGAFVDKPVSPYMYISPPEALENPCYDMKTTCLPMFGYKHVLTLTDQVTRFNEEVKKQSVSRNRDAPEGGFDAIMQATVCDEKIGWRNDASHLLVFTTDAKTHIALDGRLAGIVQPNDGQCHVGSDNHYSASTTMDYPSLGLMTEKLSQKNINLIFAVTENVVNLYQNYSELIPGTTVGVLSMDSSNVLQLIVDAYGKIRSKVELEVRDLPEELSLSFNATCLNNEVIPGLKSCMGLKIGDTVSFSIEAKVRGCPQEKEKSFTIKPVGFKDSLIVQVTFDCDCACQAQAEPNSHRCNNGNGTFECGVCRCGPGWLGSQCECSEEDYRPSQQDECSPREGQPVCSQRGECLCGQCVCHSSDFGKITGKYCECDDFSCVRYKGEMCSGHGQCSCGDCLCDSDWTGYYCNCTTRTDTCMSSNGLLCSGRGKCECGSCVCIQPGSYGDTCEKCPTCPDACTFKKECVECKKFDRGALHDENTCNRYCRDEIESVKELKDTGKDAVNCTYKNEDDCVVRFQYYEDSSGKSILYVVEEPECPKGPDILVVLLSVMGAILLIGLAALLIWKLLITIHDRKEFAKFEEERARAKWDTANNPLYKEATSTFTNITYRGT
- test-name: Test (a): inhibition of ADP stimulated platelet aggregation (Born)
- Type: cell-based
- measurement-conditions: ADP induced aggregation of human platelet-rich plasma; read-out: Test (a): pA2 value indicating potency of platelet aggregation inhibition (converted)
Where a name gives a salt, the structure may show the parent alone.
measurement-kind: Kb (nM)

[[record]]
molecule = "CCCCS(=O)(=O)N[C@@H](Cc1ccc(OC2CCN(c3ccncc3)CC2)cc1)C(=O)O"
units_label = "nM"
comparison_symbol = "="
readout_number = 31.6

[[record]]
molecule = "O=C(O)CCNC(=O)CCCCN1CCN(c2ccncc2)CC1"
units_label = "nM"
comparison_symbol = "="
readout_number = 794

[[record]]
molecule = "O=C(O)COc1ccc(C(=O)NCC2CCN(c3ccncc3)CC2)cc1"
units_label = "nM"
comparison_symbol = "="
readout_number = 794

[[record]]
molecule = "CCn1cc(C(=O)O)c(=O)c2ccc(N3CCN(c4ccncc4)CC3)cc21"
units_label = "nM"
comparison_symbol = "="
readout_number = 6310

[[record]]
molecule = "COC(=O)COc1ccc(C(=O)CN2CCN(c3ccncc3)CC2)c(C)c1"
units_label = "nM"
comparison_symbol = "="
readout_number = 200

[[record]]
molecule = "COC(=O)COc1cc(OCC(=O)OC)cc(C(=O)CN2CCN(c3ccncc3)CC2)c1"
units_label = "nM"
comparison_symbol = "="
readout_number = 2000

[[record]]
molecule = "COC(=O)C(Cc1ccc(OCc2cnccc2N(C)C)cc1)NC(=O)OCc1ccccc1 (stereo not drawn)"
units_label = "nM"
comparison_symbol = ">"
readout_number = 100000

[[record]]
molecule = "Cc1cc(C(=O)CN2CCN(c3ccncc3)CC2=O)ccc1OCC(=O)O"
units_label = "nM"
comparison_symbol = "="
readout_number = 6.31

[[record]]
molecule = "COC(=O)CCNC(=O)c1ccc(N2CCN(c3ccncc3)CC2)cc1"
units_label = "nM"
comparison_symbol = "="
readout_number = 3160

[[record]]
molecule = "CC(C)(C)OC(=O)COc1ccc(CC(=O)N2CCN(c3ccncc3)CC2)cc1"
units_label = "nM"
comparison_symbol = "="
readout_number = 20000

[[record]]
molecule = "CCCCC(=O)N[C@@H](Cc1ccc(OCCC2CCN(c3ccncc3)CC2)cc1)C(=O)O"
units_label = "nM"
comparison_symbol = "="
readout_number = 12.6

[[record]]
molecule = "COC(=O)c1ccc(Oc2ccc(N3CCN(c4ccncc4)CC3)cc2)nc1"
units_label = "nM"
comparison_symbol = "="
readout_number = 31600

[[record]]
molecule = "CCOC(=O)c1ccc(C(=O)CN2CCN(c3ccncc3)CC2)cc1"
units_label = "nM"
comparison_symbol = "="
readout_number = 25100

[[record]]
molecule = "CS(=O)(=O)N[C@@H](Cc1ccc(OCCC2CCN(c3ccncc3)CC2)cc1)C(=O)O"
units_label = "nM"
comparison_symbol = "="
readout_number = 1

[[record]]
molecule = "CN(C)c1ccncc1CCCOc1ccc(C[C@H](NC(=O)OCc2ccccc2)C(=O)O)cc1"
units_label = "nM"
comparison_symbol = "="
readout_number = 158

[[record]]
molecule = "O=C(O)CCc1ccc(OCC2CCN(c3ccncc3)CC2)cc1"
units_label = "nM"
comparison_symbol = "="
readout_number = 20000

[[record]]
molecule = "O=C(O)CCCc1ccc(CN2CCN(c3ccncc3)CC2)cc1 [Example 180, dihydrochloride]"
units_label = "nM"
comparison_symbol = "="
readout_number = 3160

